Just for reference, patent US9365613B2 is where these values come from.

Molecular target: thrombin (UniProt P00735)
Assay: Inhibitory constants for thrombin
Type: biochemical
Settings: read-out: Ki Thrombin
pKi: −log10 of the molar value.
readout-type: pKi

P. CC(C)(C)OC[C@@H](NS(=O)(=O)Cc1ccc(C(=O)O)cc1)C(=O)N[C@@H](CO)C(=O)NCc1ccc(C(=N)N)cc1
Q. CC(C)(C)OC[C@@H](NS(=O)(=O)Cc1ccccc1)C(=O)N[C@@H](CC(=O)O)C(=O)NCc1ccc(C(=N)N)cc1
R. CC(C)(C)OC[C@@H](NS(=O)(=O)Cc1ccc(C#N)cc1)C(=O)N1CCC[C@H]1C(=O)NCc1ccc(C(=N)N)cc1
Qu. Arrange the 3 molecules from largest to smallest pKi. Record the ranking as a list of labels in the requested order.
Ans. R, P, Q

====

What follows is a collection of Ki values obtained with human factor XIa (Homo sapiens, UniProt P03951).
Sequence (P03951 388-625 limits assumed): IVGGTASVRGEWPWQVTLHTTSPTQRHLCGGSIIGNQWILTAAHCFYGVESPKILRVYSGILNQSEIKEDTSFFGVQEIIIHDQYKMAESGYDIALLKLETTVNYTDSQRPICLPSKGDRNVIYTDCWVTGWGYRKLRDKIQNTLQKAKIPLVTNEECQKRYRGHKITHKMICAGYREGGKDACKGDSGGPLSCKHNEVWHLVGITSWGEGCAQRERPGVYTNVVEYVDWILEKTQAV
Sequence (P03951 19-387 partner limits assumed): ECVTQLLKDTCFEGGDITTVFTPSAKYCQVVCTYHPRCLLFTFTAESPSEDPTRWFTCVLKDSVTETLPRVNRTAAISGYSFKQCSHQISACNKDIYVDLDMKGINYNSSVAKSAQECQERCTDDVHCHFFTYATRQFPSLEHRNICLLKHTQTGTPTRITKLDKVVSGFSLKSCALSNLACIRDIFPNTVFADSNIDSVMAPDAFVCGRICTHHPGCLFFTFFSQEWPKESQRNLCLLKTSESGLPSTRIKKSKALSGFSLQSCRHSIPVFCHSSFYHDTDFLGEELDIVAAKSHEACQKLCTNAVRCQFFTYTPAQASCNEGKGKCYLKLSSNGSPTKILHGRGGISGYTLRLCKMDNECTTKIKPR
readout-type: Ki (nM)

N=C(N)c1ccc(CNC(=O)CNC(=O)[C@@H](CC2CCCCC2)NS(=O)(=O)Cc2ccccc2)cc1	330

A. N=C(N)NCCC[C@@H](NS(=O)(=O)Cc1ccccc1)C(=O)NCC(=O)NCc1ccc(C(=N)N)cc1
B. N=C(N)c1ccc(CNC(=O)[C@H](CCC(=O)O)NC(=O)[C@@H](CC2CCCCC2)NS(=O)(=O)Cc2ccccc2)cc1
C. N=C(N)c1ccc(CNC(=O)C2CCCN2C(=O)C(CO)NS(=O)(=O)Cc2ccccc2)cc1 (stereo not shown)
Qu. Ordering: ascending Ki. Record the ranking as a list of labels in the requested order.
Ans. B, C, A

a. N=C(N)c1ccc(CNC(=O)[C@H](Cc2ccccc2)NC(=O)[C@@H](CO)NS(=O)(=O)Cc2ccccc2)cc1
b. CC(C)(C)OC[C@@H](NS(=O)(=O)Cc1ccccc1)C(=O)NCC(=O)NCc1ccc(C(=N)N)cc1
Qu. # compare Ki for a vs b ; return the one with the smaller value # respond with the chosen item's label
Ans. a

====

What follows is a collection of pKi values obtained with human factor XIIa (Homo sapiens, UniProt P00748).
Sequence (P00748 373-615 limits assumed, other chains not shown): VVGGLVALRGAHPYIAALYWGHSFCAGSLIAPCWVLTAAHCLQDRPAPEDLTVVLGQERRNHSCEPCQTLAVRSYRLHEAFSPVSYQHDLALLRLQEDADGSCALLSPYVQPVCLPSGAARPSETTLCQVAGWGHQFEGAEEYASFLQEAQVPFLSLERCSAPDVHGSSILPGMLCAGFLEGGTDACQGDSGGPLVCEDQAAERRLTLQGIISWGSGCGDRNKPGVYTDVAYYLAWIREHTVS
pKi: −log10 of the molar value.
readout-type: pKi

The cases that follow already have their pKi on record.
CC(C)(C)OC[C@@H](NS(=O)(=O)Cc1ccccc1)C(=O)N[C@@H](CCC(=O)O)C(=O)NCc1ccc(C(=N)N)cc1	4.72
CC(C)(C)OC[C@@H](NS(=O)(=O)Cc1ccccc1)C(=O)N[C@@H](CCCCNC(=O)OCc1ccccc1)C(=O)NCc1ccc(C(=N)N)cc1	5.27
COC(=O)c1ccc(CS(=O)(=O)N[C@H](Cc2cccc(C(=N)N)c2)C(=O)NCC(=O)NCc2ccc(C(=N)N)cc2)cc1	6.42
N=C(N)c1ccc(CNC(=O)[C@@H]2CCCN2C(=O)[C@@H](CC2CCCCC2)NS(=O)(=O)Cc2cccc(CNC(=O)CCCC(=O)O)c2)cc1	5.25
CC(C)(C)OC[C@@H](NS(=O)(=O)Cc1ccc(C(=O)O)cc1)C(=O)N[C@@H](CO)C(=O)NCc1ccc(C(=N)N)cc1	4.77

I. CC(C)(C)OC[C@@H](NS(=O)(=O)Cc1ccccc1)C(=O)N[C@@H](Cc1ccccc1)C(=O)NCc1ccc(C(=N)N)cc1
II. N=C(N)c1ccc(CNC(=O)[C@H](CNC(=O)OCc2ccccc2)NC(=O)[C@@H](CO)NS(=O)(=O)Cc2ccccc2)cc1
Qu. Consider I and II . Which of these has its pKi at a higher number? # respond with the chosen item's label
Ans. I
(I: 5.34, II: 4.89)

A. COC(=O)c1ccc(CS(=O)(=O)N[C@H](COC(C)(C)C)C(=O)N[C@@H](C)C(=O)NCc2ccc(C(=N)N)cc2)cc1
B. N=C(N)c1ccc(CNC(=O)[C@H](CCC(=O)OCc2ccccc2)NC(=O)[C@@H](CCc2ccncc2)NS(=O)(=O)Cc2ccccc2)cc1
Qu. # compare pKi for A vs B ; return the one with the smaller value # respond with the chosen item's label
Ans. A
